Listing of entries alongside the reported IC50.
# TARGET ENTITY: UniProtKB P48426
# Sequence (P48426 1-406): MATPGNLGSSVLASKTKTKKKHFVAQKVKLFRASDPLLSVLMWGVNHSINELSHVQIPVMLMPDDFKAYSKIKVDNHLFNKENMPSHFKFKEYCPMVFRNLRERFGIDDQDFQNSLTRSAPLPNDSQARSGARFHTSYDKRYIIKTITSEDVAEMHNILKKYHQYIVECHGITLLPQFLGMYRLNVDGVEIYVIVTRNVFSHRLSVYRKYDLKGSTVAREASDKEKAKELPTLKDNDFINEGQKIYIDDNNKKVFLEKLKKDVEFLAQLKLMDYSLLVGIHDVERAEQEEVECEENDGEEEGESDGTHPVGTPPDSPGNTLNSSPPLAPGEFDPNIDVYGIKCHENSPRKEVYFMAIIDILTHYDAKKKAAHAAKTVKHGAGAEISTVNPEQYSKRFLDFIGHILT
# TEST DESCRIPTION: Kinase Assay PIP4K2 A (PIP4KtypeIIA inhibition assay)
# Type: biochemical
# Parameters: made in house; host or cells: E. coli
# REPORTED CONDITIONS: compounds listed under IC50 bin headings

CC1Oc2cc(N3CCCC3=O)ccc2-c2cnc(Nc3cnc4c(c3)N(S(C)(=O)=O)CCO4)cc21 (stereo not shown) : ≤ 1 nM
CC1Oc2cc(N3CCCC3=O)ccc2-c2cnc(Nc3cncc(C(F)(F)F)c3)cc21 (stereo not shown) : 10 to 100 nM
CC1Oc2cc(N3CCCC3=O)ccc2-c2cnc(Nc3cncc(N(C)S(C)(=O)=O)c3)cc21 (stereo not shown) : 1 to 10 nM
CC1Oc2cc(N3CCCC3=O)ccc2-c2cnc(Nc3cccnc3)cc21 (stereo not shown) : 1 to 10 nM
CC1Oc2cc(N3CCCC3=O)ccc2-c2cnc(Nc3cncc(N4CCCC4=O)c3)cc21 (stereo not shown) : ≤ 1 nM
CC1Oc2cc(C(=O)N(C)C)ccc2-c2cnc(Nc3cncc(N4CCCC4=O)c3)cc21 (stereo not shown) : ≤ 1 nM

Enquiry: State the recorded IC50 for this entry: CS(=O)(=O)N1CCOc2ncc(Nc3cc4c(cn3)-c3ccc(N5CCCC5=O)cc3OC4)cc21
Return: ≤ 1 nM

Enquiry: Try the compound CC1c2cc(Nc3cnc4c(c3)OCCO4)ncc2-c2ccc(N3CCCC3=O)cc2N1C (stereo not shown)
Return: 1 to 10 nM

Enquiry: Try the compound CC1(C)Oc2cc(N3CCCC3=O)c(F)cc2-c2cnc(Nc3cnc4c(c3)N3C(=O)CC[C@H]3CO4)cc21
Return: ≤ 1 nM

Enquiry: Try the compound CC1Oc2cc(N3CCCC3=O)c(F)cc2-c2cnc(Nc3cnc4c(c3)N3C(=O)CC[C@H]3CO4)cc21 (stereo partly shown)
Return: ≤ 1 nM

Enquiry: Try the compound C[C@H]1Oc2cc(N3CCCC3=O)ccc2-c2cnc(Nc3cnc4c(c3)N3C(=O)CC[C@H]3CO4)cc21
Return: ≤ 1 nM

Enquiry: Try the compound CC1c2cc(Nc3cccnc3)ncc2-c2ccc(C(=O)N(C)C)cc2N1C (stereo not shown)
Return: 1 to 10 nM

###

# TARGET ENTITY: PIP4K 2A (Homo sapiens, UniProt P48426)
# Sequence (P48426 1-406): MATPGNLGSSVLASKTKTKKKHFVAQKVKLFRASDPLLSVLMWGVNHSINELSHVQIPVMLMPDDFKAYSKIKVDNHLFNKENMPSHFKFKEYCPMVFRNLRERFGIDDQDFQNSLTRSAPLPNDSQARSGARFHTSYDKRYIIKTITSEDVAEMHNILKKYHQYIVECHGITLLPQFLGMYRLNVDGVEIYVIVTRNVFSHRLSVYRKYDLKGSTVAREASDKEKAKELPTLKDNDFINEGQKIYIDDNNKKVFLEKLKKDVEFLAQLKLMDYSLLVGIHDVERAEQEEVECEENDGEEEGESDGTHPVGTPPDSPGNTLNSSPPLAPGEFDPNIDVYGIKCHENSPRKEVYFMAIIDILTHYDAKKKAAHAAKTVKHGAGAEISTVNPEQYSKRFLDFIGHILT
# TEST DESCRIPTION: Kinase Assay PIP4K2 A (PIP4KtypeIIA inhibition assay)
# Format: biochemical
# Set-up: made in house; host or cells: E. coli
# REPORTED CONDITIONS: compounds listed under IC50 bin headings
pIC50: −log10 of the molar value.
Listing of entries alongside the reported pIC50.

Worked examples follow.
CC1Oc2cc(N3CCCC3=O)ccc2-c2cnc(Nc3cnc4scnc4c3)cc21 (stereo not shown) : 8.00 to 9.00
CC1Oc2cc(C(=O)N(C)C)ccc2-c2cnc(Nc3cnc4c(c3)N3C(=O)CC[C@H]3CO4)cc21 (stereo partly shown) : ≥ 9.00
COCCC(=O)N1CCN(c2cncc(Nc3cc4c(cn3)-c3cc(F)c(N5CCCC5=O)cc3OC4(C)C)c2)CC1 : 8.00 to 9.00
CC1Oc2cc(N3CCCC3=O)ccc2-c2cnc(Nc3cncc(Nc4ccccn4)c3)cc21 (stereo not shown) : 8.00 to 9.00
CC1Oc2cc(N3CCCC3=O)ccc2-c2cnc(Nc3cnc4c(c3)N(S(=O)(=O)C(C)C)CCO4)cc21 (stereo not shown) : ≥ 9.00
Cn1cnnc1-c1ccc2c(c1)OC(C)(C)c1nc(Nc3cnc4c(c3)N3C(=O)CC[C@H]3CO4)ncc1-2 : ≥ 9.00

Enquiry: # value lookup — system PIP4K 2A (Homo sapiens, UniProt P48426), readout pIC50, item COc1ncc(Nc2cc3c(cn2)-c2ccc(N4CCCC4=O)cc2OC3C)cc1NC(C)=O (stereo not shown)
Return: 8.00 to 9.00

Enquiry: Try the compound CC(C)C(=O)N1CCOc2ncc(Nc3cc4c(cn3)-c3ccc(N5CCCC5=O)cc3OC4C)cc21 (stereo not shown)
Return: ≥ 9.00

Enquiry: Try the compound O=C1CCCN1c1ccc2c(c1)OCc1cc(Nc3cnc4c(c3)N(C(=O)C3CC3)CCO4)ncc1-2
Return: ≥ 9.00
